All values here come from patent US8921576B2.

# assay system: GST-GK derived from human liver GK (Homo sapiens, UniProt P35557)
# Construct: made in house; host or cells: Escherichia coli DH5α
# Sequence (P35557 1-466 isoform P35557-2): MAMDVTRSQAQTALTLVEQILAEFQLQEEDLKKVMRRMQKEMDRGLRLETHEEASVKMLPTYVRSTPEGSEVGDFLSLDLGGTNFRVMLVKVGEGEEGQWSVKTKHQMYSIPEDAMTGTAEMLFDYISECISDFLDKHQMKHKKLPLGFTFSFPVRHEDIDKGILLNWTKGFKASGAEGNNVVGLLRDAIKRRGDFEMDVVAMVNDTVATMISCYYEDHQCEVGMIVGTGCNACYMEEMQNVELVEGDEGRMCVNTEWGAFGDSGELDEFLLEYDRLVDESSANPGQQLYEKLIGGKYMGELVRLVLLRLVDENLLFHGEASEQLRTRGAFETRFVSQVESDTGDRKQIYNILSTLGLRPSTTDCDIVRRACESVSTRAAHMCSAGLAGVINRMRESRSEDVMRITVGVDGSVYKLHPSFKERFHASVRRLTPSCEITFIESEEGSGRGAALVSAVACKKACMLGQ
# test details: In vitro GK activity measurement test (G6PDH-coupled, OD340)
# Assay type: biochemical
# run parameters: test compound 1 μmol/L; glucose 2.5 mmol/L; 25° C.; OD340 slope with compound / without compound; read-out: GK activation rate (%)
# From the text: cDNA (GenBank Accession No. NM_033507, human glucokinase, variant 2) encoding human liver-type GK polypeptide was cloned by performing a polymerase chain reaction (hereinafter referred to as “PCR”) using a human liver cDNA library (Human liver QUICK-Clone cDNA, TAKARA BIO INC.), and the thus cloned cDNA was then introduced into an expression vector (pGEX-3X, GE Healthcare Japan) for glutathione S transferase (hereinafter referred to as GST) fusion protein expression. […]
readout kind: activity at 1 µM (%)

Qu. Identify measured activity at 1 µM corresponding to CNC(=O)CCCNC(=O)N1CCC2(C1)CN(C(=O)Nc1ncc(Cl)s1)c1ccc(Cl)cc12 (stereo not drawn)
Ans. 456

Qu. Identify measured activity at 1 µM corresponding to CONC(=O)CCCSc1cnc(NC(=O)N2CC3(CCN(C(=O)OC)C3)c3cc(Cl)ccc32)s1 (stereo not drawn)
Ans. 462

Qu. Identify measured activity at 1 µM corresponding to O=C(CCCNC(=O)N1CCC2(C1)CN(C(=O)Nc1ncc(Cl)s1)c1ccc(Cl)cc12)N1CCC1 (stereo not drawn)
Ans. 470

###

# assay system: GST-GK derived from human liver GK (Homo sapiens, UniProt P35557)
# Construct: made in house; host or cells: Escherichia coli DH5α
# test details: In vitro GK activity measurement test (G6PDH-coupled, OD340)
# Type: biochemical
# run parameters: test compound 1 μmol/L; glucose 2.5 mmol/L; 25° C.; OD340 slope with compound / without compound; read-out: GK activation rate (%)
readout kind: activity at 1 µM (%)

Qu. Identify measured activity at 1 µM corresponding to CC(=O)N1CC(CNC(=O)N2CCC3(C2)CN(C(=O)Nc2ncc(Cl)s2)c2ccc(Cl)cc23)C1 (stereo not shown)
Ans. 445

Qu. Identify measured activity at 1 µM corresponding to COC(=O)N1CCC2(C1)CN(C(=O)Nc1ncc(SCCCC(=O)N3CC(O)C3)s1)c1ccc(Cl)cc12 (stereo not shown)
Ans. 506

Qu. Identify measured activity at 1 µM corresponding to CNC(=O)N1CC[C@@]2(C1)CN(C(=O)Nc1ncc(F)s1)c1ccc(Cl)cc12
Ans. 437

Qu. Identify measured activity at 1 µM corresponding to COCCCN(Cc1ccccc1)S(=O)(=O)c1ccc2c(c1)C1(CCN(C(C)=O)C1)CN2C(=O)Nc1nc2ccc(OC)nc2s1 (stereo not shown)
Ans. 752

Qu. Identify measured activity at 1 µM corresponding to COCCCSc1cnc(NC(=O)N2CC3(CCN(C(=O)OC)C3)c3cc(Cl)ccc32)s1 (stereo not shown)
Ans. 484

Qu. Identify measured activity at 1 µM corresponding to CN(C)CCN(Cc1ccccc1)S(=O)(=O)c1ccc2c(c1)C1(CCN(C=O)C1)CN2C(=O)Nc1ncc(F)s1 (stereo not shown)
Ans. 504

Qu. Identify measured activity at 1 µM corresponding to CNC(=O)CCSc1cnc(NC(=O)N2CC3(CCN(C(=O)OC)C3)c3cc(Cl)ccc32)s1 (stereo not shown)
Ans. 656

Qu. Identify measured activity at 1 µM corresponding to COC(=O)N1CC[C@@]2(C1)CN(C(=O)Nc1nc3ccc(OC)nc3s1)c1ccc(S(=O)(=O)N(CCN(C)C)Cc3ccccc3)cc12
Ans. 611

Qu. Identify measured activity at 1 µM corresponding to COC(=O)N1CC[C@@]2(C1)CN(C(=O)Nc1ncc(SCC(=O)O)s1)c1ccc(Br)cc12
Ans. 451

Qu. Identify measured activity at 1 µM corresponding to NCC(=O)N1CC[C@@]2(C1)CN(C(=O)Nc1ncc(Cl)s1)c1ccc(Cl)cc12
Ans. 486

Qu. Identify measured activity at 1 µM corresponding to CNC(=O)N1CC[C@@]2(C1)CN(C(=O)Nc1ncc(OC)s1)c1ccc(C(F)(F)F)cc12
Ans. 645

Qu. Identify measured activity at 1 µM corresponding to CCOC(=O)CCNC(=O)N1CCC2(C1)CN(C(=O)Nc1ncc(Cl)s1)c1ccc(Cl)cc12 (stereo not shown)
Ans. 454

Qu. Identify measured activity at 1 µM corresponding to O=C(CCNC(=O)N1CCC2(C1)CN(C(=O)Nc1ncc(Cl)s1)c1ccc(Cl)cc12)N1CCC1 (stereo not shown)
Ans. 446

Qu. Identify measured activity at 1 µM corresponding to COC(=O)N1CCC2(C1)CN(C(=O)Nc1ncc(SCCCNC(=O)C3CC3)s1)c1ccc(Cl)cc12 (stereo not shown)
Ans. 575

Qu. Identify measured activity at 1 µM corresponding to CC(=O)N1CC(CNC(=O)N2CCC3(C2)CN(C(=O)Nc2ncc(Cl)s2)c2ccc(C(F)(F)F)cc23)C1 (stereo not shown)
Ans. 500

Qu. Identify measured activity at 1 µM corresponding to CNC(=O)N1CC[C@@]2(C1)CN(C(=O)Nc1ncc(Cl)s1)c1ccc(C#N)cc12
Ans. 528

Qu. Identify measured activity at 1 µM corresponding to CCNC(=O)N1CCC2(C1)CN(C(=O)Nc1ncc(Cl)s1)c1ccc(Cl)cc12 (stereo not shown)
Ans. 554

Qu. Identify measured activity at 1 µM corresponding to COC(=O)N1CCC2(C1)CN(C(=O)Nc1ncc(SCCCO)s1)c1ccc(Cl)cc12 (stereo not shown)
Ans. 514

Qu. Identify measured activity at 1 µM corresponding to CC(=O)N1CCC2(C1)CN(C(=O)Nc1ncc(Cl)s1)c1ccc(C(F)(F)F)cc12 (stereo not shown)
Ans. 432

Qu. Identify measured activity at 1 µM corresponding to CNC(=O)N1CC[C@@]2(C1)CN(C(=O)Nc1ncc(OC)s1)c1ccc(C#N)cc12
Ans. 465

Qu. Identify measured activity at 1 µM corresponding to O=C(NCCCO)N1CCC2(C1)CN(C(=O)Nc1ncc(Cl)s1)c1ccc(Cl)cc12 (stereo not shown)
Ans. 526

Qu. Identify measured activity at 1 µM corresponding to CNC(=O)N1CC[C@@]2(C1)CN(C(=O)Nc1ncc(F)s1)c1ccc(C(F)(F)F)cc12
Ans. 659

Qu. Identify measured activity at 1 µM corresponding to COC(=O)N1CC[C@@]2(C1)CN(C(=O)Nc1ncc(F)s1)c1ccc(Cl)cc12
Ans. 636

Qu. Identify measured activity at 1 µM corresponding to CNC(=O)N1CCC2(C1)CN(C(=O)Nc1ncc(OC)s1)c1ccc(C(F)(F)F)cc12 (stereo not shown)
Ans. 520

Qu. Identify measured activity at 1 µM corresponding to COc1ccc2nc(NC(=O)N3CC4(CCN(C(C)=O)C4)c4cc(S(=O)(=O)NCc5ccccc5OC)ccc43)sc2n1 (stereo not shown)
Ans. 597
